Recorded IC50 for the following compounds
- system under test: rat sucrase (partially purified alpha-glucosidase from intestinal rat powder) (Rattus norvegicus)
- Sequence (P23739 whole entry): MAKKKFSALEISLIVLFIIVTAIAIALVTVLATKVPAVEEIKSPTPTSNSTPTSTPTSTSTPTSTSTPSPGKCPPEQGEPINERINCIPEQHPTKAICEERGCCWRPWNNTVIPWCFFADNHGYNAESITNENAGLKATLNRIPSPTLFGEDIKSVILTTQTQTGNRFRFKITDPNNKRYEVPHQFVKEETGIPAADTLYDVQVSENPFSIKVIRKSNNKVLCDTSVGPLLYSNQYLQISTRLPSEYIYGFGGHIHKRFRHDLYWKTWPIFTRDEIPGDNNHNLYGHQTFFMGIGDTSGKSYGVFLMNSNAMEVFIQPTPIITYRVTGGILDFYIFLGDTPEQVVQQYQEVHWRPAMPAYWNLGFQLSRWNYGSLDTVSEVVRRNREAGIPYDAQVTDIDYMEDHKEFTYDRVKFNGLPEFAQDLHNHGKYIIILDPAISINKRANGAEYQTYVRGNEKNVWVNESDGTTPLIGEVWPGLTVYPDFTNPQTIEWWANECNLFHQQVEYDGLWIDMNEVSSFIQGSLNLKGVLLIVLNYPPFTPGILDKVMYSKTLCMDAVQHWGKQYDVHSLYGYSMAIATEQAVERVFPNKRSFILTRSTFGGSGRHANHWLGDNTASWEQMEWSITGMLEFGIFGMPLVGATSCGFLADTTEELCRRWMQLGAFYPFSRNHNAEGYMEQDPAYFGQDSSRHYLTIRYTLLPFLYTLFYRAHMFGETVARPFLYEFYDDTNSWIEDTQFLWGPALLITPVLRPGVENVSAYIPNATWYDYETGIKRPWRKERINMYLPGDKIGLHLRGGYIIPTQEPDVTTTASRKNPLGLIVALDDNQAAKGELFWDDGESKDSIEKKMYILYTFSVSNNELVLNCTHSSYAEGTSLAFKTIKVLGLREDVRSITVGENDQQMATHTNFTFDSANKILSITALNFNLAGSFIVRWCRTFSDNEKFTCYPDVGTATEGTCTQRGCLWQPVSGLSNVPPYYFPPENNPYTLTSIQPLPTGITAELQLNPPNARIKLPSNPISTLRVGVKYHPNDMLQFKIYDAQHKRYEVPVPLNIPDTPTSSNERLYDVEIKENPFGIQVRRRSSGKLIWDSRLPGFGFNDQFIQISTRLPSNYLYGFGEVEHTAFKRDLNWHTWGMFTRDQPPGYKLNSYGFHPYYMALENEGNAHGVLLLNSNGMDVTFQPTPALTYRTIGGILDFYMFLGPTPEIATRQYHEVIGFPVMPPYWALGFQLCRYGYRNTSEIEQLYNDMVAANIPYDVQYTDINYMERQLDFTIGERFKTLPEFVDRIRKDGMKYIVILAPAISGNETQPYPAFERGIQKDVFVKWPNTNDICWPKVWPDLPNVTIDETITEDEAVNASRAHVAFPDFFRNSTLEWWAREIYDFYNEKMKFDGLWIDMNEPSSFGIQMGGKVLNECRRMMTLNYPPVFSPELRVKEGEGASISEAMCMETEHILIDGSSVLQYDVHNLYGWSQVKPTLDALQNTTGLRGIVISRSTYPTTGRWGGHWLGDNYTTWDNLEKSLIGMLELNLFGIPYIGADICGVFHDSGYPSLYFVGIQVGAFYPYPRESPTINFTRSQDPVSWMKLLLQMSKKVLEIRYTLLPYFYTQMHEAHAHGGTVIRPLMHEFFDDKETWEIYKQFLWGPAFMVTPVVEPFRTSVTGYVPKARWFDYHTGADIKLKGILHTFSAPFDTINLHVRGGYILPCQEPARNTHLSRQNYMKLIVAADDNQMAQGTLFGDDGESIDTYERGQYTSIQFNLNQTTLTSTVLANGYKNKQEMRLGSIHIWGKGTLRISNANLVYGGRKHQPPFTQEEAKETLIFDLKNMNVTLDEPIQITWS
property name: IC50 (nM)

INSERT INTO measurements (given_smiles, property_name, unit_abbreviation, relation_sign, observed_measurement) VALUES
  ('[N-]=[N+]=Nc1ccc(NCC[C@H]2CC[C@@H](CCN3C[C@H](O)[C@@H](O)[C@H](O)[C@H]3CO)CC2)c([N+](=O)[O-])c1', 'IC50', 'nM', '=', 6),
  ('COc1ccc(C#CCCCCCN2C[C@H](O)[C@@H](O)[C@H](O)[C@H]2CO)cc1', 'IC50', 'nM', '=', 371),
  ('O=S(=O)(Nc1cc(NCCCCCCN2C[C@H](O)[C@@H](O)[C@H](O)[C@H]2CO)cc(-c2ncccn2)c1)C1CC1', 'IC50', 'nM', '=', 52),
  ('[N-]=[N+]=Nc1ccc(NCc2ccc(Cc3ccc(CN4C[C@H](O)[C@@H](O)[C@H](O)[C@H]4CO)cc3)cc2)c([N+](=O)[O-])c1', 'IC50', 'nM', '=', 12),
  ('N#Cc1cc(NCc2cccc(CN3C[C@H](O)[C@@H](O)[C@H](O)[C@H]3CO)c2)cc(C2=COCCO2)c1', 'IC50', 'nM', '<', 1),
  ('OC[C@@H]1[C@@H](O)[C@H](O)[C@@H](O)CN1Cc1ccc(CNc2cc(C3CC3)cc(N3CCOCC3)c2)cc1', 'IC50', 'nM', '=', 96),
  ('Cc1cc(NCc2ccc(CN3C[C@H](O)[C@@H](O)[C@H](O)[C@H]3CO)cc2)cc(C2=COCCO2)c1', 'IC50', 'nM', '=', 4),
  ('COc1cc(-c2ncco2)ccc1NCCCCCCN1C[C@H](O)[C@@H](O)[C@H](O)[C@H]1CO', 'IC50', 'nM', '=', 71),
  ('Nc1ccc(NCCc2ccccc2CCN2C[C@H](O)[C@@H](O)[C@H](O)[C@H]2CO)c([N+](=O)[O-])c1Cl', 'IC50', 'nM', '=', 294),
  ('OC[C@@H]1[C@@H](O)[C@H](O)[C@@H](O)CN1Cc1ccc(CNc2ccc(CN3CCCO3)cc2)cc1', 'IC50', 'nM', '=', 48),
  ('OC[C@@H]1[C@@H](O)[C@H](O)[C@@H](O)CN1Cc1ccc(CNc2ccc(-c3cccnn3)cc2)cc1', 'IC50', 'nM', '=', 13),
  ('OC[C@@H]1[C@@H](O)[C@H](O)[C@@H](O)CN1CCc1ccc(CCNc2cc(Cl)cc(-c3noc(C4CCC4)n3)c2)cc1', 'IC50', 'nM', '=', 1660),
  ('[N-]=[N+]=Nc1ccc(NCCc2nccc(CCN3C[C@H](O)[C@@H](O)[C@H](O)[C@H]3CO)n2)c([N+](=O)[O-])c1', 'IC50', 'nM', '=', 783);

====

- system under test: rat sucrase (partially purified alpha-glucosidase from intestinal rat powder) (Rattus norvegicus)
property name: IC50 (nM)

INSERT INTO measurements (compound, relation_sign, observed_measurement) VALUES
  ('Cc1cc(NCc2cccc(CN3C[C@H](O)[C@@H](O)[C@H](O)[C@H]3CO)n2)cc(-c2ccco2)c1 [Compound 1334]', '=', 336),
  ('COc1cc(NCCCCCCN2C[C@H](O)[C@@H](O)[C@H](O)[C@H]2CO)cc(C2=CCCCC2)c1 [Compound 1149]', '<', 1),
  ('O=[N+]([O-])c1cc(C2=COCCO2)ccc1NCc1ccc(CN2C[C@H](O)[C@@H](O)[C@H](O)[C@H]2CO)cc1 [Compound 1099]', '<', 1),
  ('[N-]=[N+]=Nc1ccc(N2CCN(CCN3C[C@H](O)[C@@H](O)[C@H](O)[C@H]3CO)CC2)c([N+](=O)[O-])c1 [Compound 1254]', '=', 6530),
  ('CS(=O)(=O)c1cc(NCc2cccc(CN3C[C@H](O)[C@@H](O)[C@H](O)[C@H]3CO)c2)cc(-c2ncccn2)c1 [Compound 1041]', '=', 187),
  ('CCCc1nc(-c2cc(Cl)cc(NCCc3ccc(CCN4C[C@H](O)[C@@H](O)[C@H](O)[C@H]4CO)cc3)c2)no1 [Compound 1123]', '=', 2810),
  ('Cc1cc(NCc2ccc(CN3C[C@H](O)[C@@H](O)[C@H](O)[C@H]3CO)cc2)cc(-c2ccc[nH]2)c1 [Compound 1051]', '<', 1);

====

- system under test: recombinant human GBA (beta-glucocerebrosidase) (Homo sapiens, UniProt P04062)
- Sequence (P04062 40-536): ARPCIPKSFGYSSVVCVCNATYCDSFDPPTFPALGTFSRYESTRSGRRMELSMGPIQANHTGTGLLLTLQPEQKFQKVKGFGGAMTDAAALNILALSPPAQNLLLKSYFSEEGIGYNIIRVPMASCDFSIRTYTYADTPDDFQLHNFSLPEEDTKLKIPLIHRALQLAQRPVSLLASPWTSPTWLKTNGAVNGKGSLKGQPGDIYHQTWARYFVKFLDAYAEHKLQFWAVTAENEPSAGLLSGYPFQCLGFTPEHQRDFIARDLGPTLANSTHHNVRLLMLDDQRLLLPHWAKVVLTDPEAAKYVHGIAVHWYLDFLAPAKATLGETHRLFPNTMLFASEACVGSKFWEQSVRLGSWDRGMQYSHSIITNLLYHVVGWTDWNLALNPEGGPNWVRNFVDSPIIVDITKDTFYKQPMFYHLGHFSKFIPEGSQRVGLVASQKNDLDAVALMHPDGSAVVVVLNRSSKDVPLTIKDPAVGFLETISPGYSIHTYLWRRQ
- method notes: Beta-glucocerebrosidase (GBA, glucosylceramidase) assay (4-methylumbelliferyl-beta-D-pyranoside substrate, fluorescence)
pIC50: −log10 of the molar value.
property name: pIC50

INSERT INTO assay_data (molecule, observed_measurement) VALUES
  ('[N-]=[N+]=Nc1ccc(NCCc2cc(CCN3C[C@H](O)[C@@H](O)[C@H](O)[C@H]3CO)ccc2C2CCCCC2)c([N+](=O)[O-])c1 [Compound 1171]', 6.69),
  ('[N-]=[N+]=Nc1ccc(NCCn2cc(CCN3C[C@H](O)[C@@H](O)[C@H](O)[C@H]3CO)nn2)c([N+](=O)[O-])c1 [Compound 1272]', 5.39),
  ('Cc1cc(NCc2ccc(CN3C[C@H](O)[C@@H](O)[C@H](O)[C@H]3CO)cc2)cc(-c2ccco2)c1 [Compound 1317]', 4.35),
  ('O=[N+]([O-])c1cc(N2CCOCC2)ccc1NCc1cccc(CN2C[C@H](O)[C@@H](O)[C@H](O)[C@H]2CO)c1 [Compound 1067]', 5.43),
  ('COc1cc(NCCCCCCN2C[C@H](O)[C@@H](O)[C@H](O)[C@H]2CO)cc(-c2ncco2)c1 [Compound 1216]', 5.67),
  ('N#Cc1cc(Br)cc(NCc2ccc(CN3C[C@H](O)[C@@H](O)[C@H](O)[C@H]3CO)cc2)c1 [Compound 1026]', 4.42),
  ('N#Cc1ccc(NCCCCCCN2C[C@H](O)[C@@H](O)[C@H](O)[C@H]2CO)c([N+](=O)[O-])c1 [Compound 1304]', 7.37);

====

- system under test: rat maltase (partially purified alpha-glucosidase from intestinal rat powder)
- method notes: Intestinal alpha-glucosidase assay, maltose substrate (Glucose GO Kit)
property name: IC50 (nM)

INSERT INTO assay_data (given_smiles, property_name, relation_sign, observed_measurement) VALUES
  ('O=Cc1cc(NCCCCCCN2C[C@H](O)[C@@H](O)[C@H](O)[C@H]2CO)cc(-c2ncccn2)c1', 'IC50', '=', 5),
  ('O=[N+]([O-])c1cc(-c2ccc[nH]2)ccc1NCc1ccc(CN2C[C@H](O)[C@@H](O)[C@H](O)[C@H]2CO)cc1', 'IC50', '<', 1),
  ('Cc1cc(-c2ccco2)ccc1NCc1ccc(CN2C[C@H](O)[C@@H](O)[C@H](O)[C@H]2CO)cc1', 'IC50', '<', 1),
  ('O=Cc1cc(-c2ncccn2)ccc1NCCCCCCN1C[C@H](O)[C@@H](O)[C@H](O)[C@H]1CO', 'IC50', '=', 6),
  ('COCCc1ccc(CCCN2C[C@H](O)[C@@H](O)[C@H](O)[C@H]2CO)cc1', 'IC50', '=', 88),
  ('Cc1cc(NCc2ccc(CN3C[C@H](O)[C@@H](O)[C@H](O)[C@H]3CO)cc2)cc(-c2ncco2)c1', 'IC50', '=', 9),
  ('OC[C@@H]1[C@@H](O)[C@H](O)[C@@H](O)CN1CCc1ccc(CCNc2cc(Cl)cc(C3=CCOCC3)c2)cc1', 'IC50', '=', 75);

====

Recorded pIC50 for the following compounds
- system under test: recombinant human GBA (beta-glucocerebrosidase) (Homo sapiens, UniProt P04062)
- method notes: Beta-glucocerebrosidase (GBA, glucosylceramidase) assay (4-methylumbelliferyl-beta-D-pyranoside substrate, fluorescence)
pIC50: −log10 of the molar value.
property name: pIC50

INSERT INTO measurements (compound, system_under_test, relation_sign, observed_measurement) VALUES
  ('COc1cc(NCCc2ccc(CCN3C[C@H](O)[C@@H](O)[C@H](O)[C@H]3CO)cc2)cc(C2=CCOCC2)c1 [Compound 1154]', 'recombinant human GBA (beta-glucocerebrosidase) (Homo sapiens, UniProt P04062)', '=', 5.77),
  ('CS(=O)(=O)c1cc(NCCCCCCN2C[C@H](O)[C@@H](O)[C@H](O)[C@H]2CO)cc(-c2ncccn2)c1 [Compound 1128]', 'recombinant human GBA (beta-glucocerebrosidase) (Homo sapiens, UniProt P04062)', '=', 5.28),
  ('CS(=O)(=O)c1cc(NCc2ccc(CN3C[C@H](O)[C@@H](O)[C@H](O)[C@H]3CO)cc2)cc(-c2cccnn2)c1 [Compound 1058]', 'recombinant human GBA (beta-glucocerebrosidase) (Homo sapiens, UniProt P04062)', '<', 4.00),
  ('CS(C)=NS(=O)(=O)c1cc(-c2ncccn2)ccc1NCCCCCCN1C[C@H](O)[C@@H](O)[C@H](O)[C@H]1CO [Compound 1247]', 'recombinant human GBA (beta-glucocerebrosidase) (Homo sapiens, UniProt P04062)', '=', 4.93),
  ('O=[N+]([O-])c1cc(Br)ccc1NCc1ccc(CN2C[C@H](O)[C@@H](O)[C@H](O)[C@H]2CO)cc1 [Compound 1030]', 'recombinant human GBA (beta-glucocerebrosidase) (Homo sapiens, UniProt P04062)', '=', 4.49),
  ('COc1cc(NCCCCCCN2C[C@H](O)[C@@H](O)[C@H](O)[C@H]2CO)cc(C2=CCCCC2)c1 [Compound 1149]', 'recombinant human GBA (beta-glucocerebrosidase) (Homo sapiens, UniProt P04062)', '=', 7.25),
  ('Cc1cc(NCc2ccc(CN3C[C@H](O)[C@@H](O)[C@H](O)[C@H]3CO)cc2)cc(-c2ncccn2)c1 [Compound 1053]', 'recombinant human GBA (beta-glucocerebrosidase) (Homo sapiens, UniProt P04062)', '<', 4.00);
